Biological target: Muscarinic acetylcholine receptor M2 (Homo sapiens, UniProt P08172)
Sequence (P08172 whole entry): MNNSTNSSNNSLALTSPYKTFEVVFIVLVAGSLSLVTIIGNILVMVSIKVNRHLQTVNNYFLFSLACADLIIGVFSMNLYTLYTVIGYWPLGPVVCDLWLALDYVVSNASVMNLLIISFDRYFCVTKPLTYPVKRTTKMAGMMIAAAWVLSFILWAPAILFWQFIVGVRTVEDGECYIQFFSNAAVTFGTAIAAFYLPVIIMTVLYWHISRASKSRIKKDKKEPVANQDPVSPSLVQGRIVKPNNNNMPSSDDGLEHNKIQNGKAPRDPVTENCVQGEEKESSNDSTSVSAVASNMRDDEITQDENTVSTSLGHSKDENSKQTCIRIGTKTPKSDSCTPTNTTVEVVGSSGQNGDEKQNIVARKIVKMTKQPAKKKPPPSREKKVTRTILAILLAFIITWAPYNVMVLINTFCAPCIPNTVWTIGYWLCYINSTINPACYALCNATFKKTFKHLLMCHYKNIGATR
Test: Antagonist activity at human recombinant muscarinic receptor M2 expressed in CHO-K1 cells assessed as EC80 acetylcholine-induced calcium flux incubated for 30 mins
Assay type: functional, cell-based
Conditions: read-out: IC50
MEASURE_NAME: pIC50
Note: pIC50 values are expressed as the negative base-10 logarithm of concentration in M.

Would you kindly share the measured pIC50 for N#Cc1ccc(N2C3CCC2CN(C(=O)CCS(=O)(=O)c2cccc4ncsc24)C3)nc1 ?
6.70

###

Molecular target: Cytochrome P450 2D6 (Homo sapiens, UniProt P10635)
Sequence (P10635 whole entry): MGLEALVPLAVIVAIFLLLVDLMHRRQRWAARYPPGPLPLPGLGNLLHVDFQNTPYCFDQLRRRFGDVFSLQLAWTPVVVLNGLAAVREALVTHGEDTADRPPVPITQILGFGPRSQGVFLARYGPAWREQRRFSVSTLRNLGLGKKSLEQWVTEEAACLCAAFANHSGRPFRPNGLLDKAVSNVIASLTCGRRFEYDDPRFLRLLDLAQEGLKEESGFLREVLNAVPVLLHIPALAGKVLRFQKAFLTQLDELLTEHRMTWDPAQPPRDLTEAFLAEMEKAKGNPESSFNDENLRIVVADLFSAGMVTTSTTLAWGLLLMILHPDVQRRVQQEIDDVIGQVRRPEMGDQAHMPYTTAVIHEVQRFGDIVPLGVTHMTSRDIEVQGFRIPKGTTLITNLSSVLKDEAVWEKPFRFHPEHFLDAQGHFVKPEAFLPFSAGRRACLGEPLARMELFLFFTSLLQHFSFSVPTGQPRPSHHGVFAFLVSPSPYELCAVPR
MEASURE_NAME: IC50

Query for Cytochrome P450 2D6 (Homo sapiens, UniProt P10635): what IC50 does the record show for N#Cc1ccc(N2C3CCC2CN(C(=O)CCS(=O)(=O)c2cccc4ncsc24)C3)nc1 ?
> 10 µM

###

Experiment: Clearance in rat at 2 mg/kg, iv
Format: ADME, organism-based
Settings: in vivo
MEASURE_NAME: clearance (mL/min/kg)
Kindly provide the numeric value in mL/min/kg only, without the unit symbol.

Quick one: clearance for N#Cc1ccc(N2C3CCC2CN(C(=O)CCS(=O)(=O)c2cccc4ncsc24)C3)nc1 ?
56

###

Target: Muscarinic acetylcholine receptor M3 (Homo sapiens)
Sequence (P20309 whole entry): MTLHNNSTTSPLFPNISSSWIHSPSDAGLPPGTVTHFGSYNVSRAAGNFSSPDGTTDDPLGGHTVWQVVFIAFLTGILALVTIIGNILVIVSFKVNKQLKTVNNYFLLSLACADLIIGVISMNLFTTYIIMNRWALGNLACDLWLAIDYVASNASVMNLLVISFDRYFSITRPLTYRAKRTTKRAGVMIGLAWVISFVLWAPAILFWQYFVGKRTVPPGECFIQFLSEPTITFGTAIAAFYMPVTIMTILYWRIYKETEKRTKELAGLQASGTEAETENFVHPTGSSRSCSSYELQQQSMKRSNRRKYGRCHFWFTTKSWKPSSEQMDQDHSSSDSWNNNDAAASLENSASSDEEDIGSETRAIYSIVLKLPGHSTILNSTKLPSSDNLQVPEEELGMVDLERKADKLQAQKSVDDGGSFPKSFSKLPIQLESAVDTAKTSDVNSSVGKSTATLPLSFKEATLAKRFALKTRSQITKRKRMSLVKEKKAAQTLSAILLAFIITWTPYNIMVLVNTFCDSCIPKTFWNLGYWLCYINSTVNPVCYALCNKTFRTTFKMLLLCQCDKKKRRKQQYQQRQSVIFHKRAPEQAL
Assay: Displacement of [3H]NMS from human recombinant muscarinic receptor M3 expressed in CHO-K1 cell membranes assessed as inhibition constant incubated for 1 hr by Radioligand binding assay
MEASURE_NAME: pKi
pKi here: minus log base 10 of the concentration, concentration in moles per litre.

Give its pKi value. Item: N#Cc1ccc(N2C3CCC2CN(C(=O)CCS(=O)(=O)c2cccc4ncsc24)C3)nc1
9.08

###

Target: Cytochrome P450 2C9 (Homo sapiens, UniProt P11712)
Sequence (P11712 whole entry): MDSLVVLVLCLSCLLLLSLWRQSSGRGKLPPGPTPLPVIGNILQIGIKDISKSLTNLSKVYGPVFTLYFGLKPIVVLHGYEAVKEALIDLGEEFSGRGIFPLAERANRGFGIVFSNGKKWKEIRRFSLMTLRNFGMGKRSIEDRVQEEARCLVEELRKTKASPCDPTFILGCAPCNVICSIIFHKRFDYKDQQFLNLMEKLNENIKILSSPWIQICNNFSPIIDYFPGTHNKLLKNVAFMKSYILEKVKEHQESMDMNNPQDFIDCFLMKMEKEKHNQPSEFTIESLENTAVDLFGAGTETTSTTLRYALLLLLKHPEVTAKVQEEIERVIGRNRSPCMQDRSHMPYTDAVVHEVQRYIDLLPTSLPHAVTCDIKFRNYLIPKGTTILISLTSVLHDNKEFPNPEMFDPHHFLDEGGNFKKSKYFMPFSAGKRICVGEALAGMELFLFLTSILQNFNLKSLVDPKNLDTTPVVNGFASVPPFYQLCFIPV
pIC50: −log10 of the molar value.
MEASURE_NAME: pIC50

Param readout= pIC50; system= Cytochrome P450 2C9 (Homo sapiens, UniProt P11712); entry= N#Cc1ccc(N2C3CCC2CN(C(=O)CCS(=O)(=O)c2cccc4ncsc24)C3)nc1 ; returns value.
< 5.00

###

Molecular target: Muscarinic acetylcholine receptor M1 (Homo sapiens, UniProt P11229)
Assay: Antagonist activity at human recombinant muscarinic receptor M1 expressed in CHO-K1 cells assessed as EC80 acetylcholine-induced calcium flux incubated for 30 mins
Format: functional, cell-based
Conditions: read-out: IC50
Entries and their measured log10(IC50) follow.
Please note: log10 values; quantity IC50; unit nM.

// solved cases for log10(IC50) follow
I am curious: what log10(IC50) value has been reported for COc1cc(N2CCN(C(=O)CCCc3cccc4ncccc34)CC2)ccn1 ?
2.48

# query: log10(IC50) of entry Cc1cc(F)cnc1N1CCN(C(=O)COCc2cccc3ncsc23)[C@@H](C)C1
3.56

Give its log10(IC50) value. Item: N#Cc1ccc(N2CC3CCC2CN3C(=O)CCS(=O)(=O)c2cccc3ncsc23)nc1 (racemic)
1.40

Request the reported log10(IC50) associated with C[C@@H]1CN(C(=O)CCS(=O)(=O)c2cccc3ncsc23)[C@@H](C)CN1c1ccc(C#N)cn1 (racemic)
2.52

Recorded log10(IC50) of CC1CN(C(=O)CCS(=O)(=O)c2cccc3ncsc23)CCN1c1ccc(C#N)cn1 (racemic) , please.
0.76

New cases:
Any idea what its log10(IC50) is? The compound is Cc1cc(F)cnc1N1CCCN(C(=O)CCCc2cccc3ncccc23)CC1
3.15

Query: log10(IC50); subject: Cc1ccncc1N1CCN(C(=O)CCS(=O)(=O)c2cccc3ncsc23)CC1
2.41

Given the compound N#Cc1cnccc1N1CCN(C(=O)CCCc2cccc3ncccc23)CC1 , what is its reported log10(IC50)?
3.04

Can you look up the measured log10(IC50) of Cc1cc(F)cnc1N1CCN(C(=O)CCCc2cccc3ncncc23)[C@@H](C)C1 for me?
1.92

Look up log10(IC50) for this compound: O=C(CCS(=O)(=O)c1cccc2ncsc12)N1CCN(c2ccc(C(F)(F)F)cn2)CC1
1.51

###

Assay: Plasma concentration in rat at 10 mg/kg, po measured after 2 hrs by LC-MS/MS
Type: ADME, organism-based
MEASURE_NAME: concentration at 2 h (µM)
# unit: µM | format: bare number

Give the measured concentration at 2 h of N#Cc1ccc(N2CCN(C(=O)CCS(=O)(=O)c3cccc4ncsc34)CC2)nc1 .
0.089

###

Assay: Metabolic stability in rat liver microsomes assessed as parent compound remaining at 1 uM measured at 15 mins by LC-MS/MS analysis
Type: ADME, Microsome
Details: read-out: Stabilty
Returns the class for an entry based on its remaining at 0.25 h, 1 µM. Class ranges: A: < 1%; B: ≥ 1% and < 30%; C: ≥ 30%

Band for the recorded remaining at 0.25 h, 1 µM of Cc1cc(F)cnc1N1CCN(C(=O)CCCc2cccc3ncoc23)[C@@H](C)C1 ?
A

Kindly state the category for this molecule: Cc1cc(F)cnc1N1CCN(C(=O)CCS(=O)(=O)c2cccc3ncsc23)[C@@H](C)C1
B

# classify by remaining at 0.25 h, 1 µM band: Cc1cc(F)cnc1N1CCN(C(=O)CCCc2cccc3nc(N)sc23)[C@@H](C)C1
B

Where would O=C(CCS(=O)(=O)c1cccc2ncsc12)N1CCN(c2ccc(Cl)cn2)CC1 land among the classes by reported remaining at 0.25 h, 1 µM?
C

Into which bin does this molecule go? O=C(CCS(=O)(=O)c1cccc2ncsc12)N1CCN(c2ccncc2F)CC1
B

Next:
Please let me know in which category the item O=C(CCS(=O)(=O)c1cccc2ncsc12)N1CCN(c2ccc(C(F)(F)F)cn2)CC1 belongs.
C

Into which bin does this molecule go? Cc1cc(F)cnc1N1CCN(C(=O)CCCc2cccc3ncccc23)[C@@H](C)C1
A

Just checking, what class would you give Cc1cc(F)cnc1N1CCN(C(=O)CCCc2cccc3ncncc23)[C@@H](C)C1 here?
A

Kindly identify the class of Cc1cc(F)cnc1N1CCN(C(=O)CCCc2cccc3ncsc23)[C@@H](C)C1 .
B

Classify this molecule: N#Cc1ccc(N2CCN(C(=O)CCS(=O)(=O)c3cccc4ncsc34)CC2)nc1
C

###

Molecular target: Muscarinic acetylcholine receptor M1 (Homo sapiens, UniProt P11229)
Sequence (P11229 whole entry): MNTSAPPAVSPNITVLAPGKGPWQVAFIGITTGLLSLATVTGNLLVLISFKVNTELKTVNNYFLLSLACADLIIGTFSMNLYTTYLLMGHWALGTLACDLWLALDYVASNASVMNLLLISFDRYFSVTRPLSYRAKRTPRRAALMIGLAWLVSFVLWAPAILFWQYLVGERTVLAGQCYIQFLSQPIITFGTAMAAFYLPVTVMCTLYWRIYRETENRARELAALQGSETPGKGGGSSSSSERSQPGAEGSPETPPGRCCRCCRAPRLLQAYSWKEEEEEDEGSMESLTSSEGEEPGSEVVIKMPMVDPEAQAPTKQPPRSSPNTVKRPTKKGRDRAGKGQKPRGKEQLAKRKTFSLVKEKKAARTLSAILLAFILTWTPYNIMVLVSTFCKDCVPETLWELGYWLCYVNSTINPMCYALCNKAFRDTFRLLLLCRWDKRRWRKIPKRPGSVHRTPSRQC
Test: Antagonist activity at human recombinant muscarinic receptor M1 expressed in CHO-K1 cells assessed as EC80 acetylcholine-induced calcium flux incubated for 30 mins
Assay type: functional, cell-based
Settings: read-out: IC50
Catalogue of log10(IC50) values
Hey, these are logged values: log10 of IC50, nM being the unit before logging.

What value of log10(IC50) has been recorded for this entry: Cc1cncc(Cl)c1N1CCN(C(=O)CCS(=O)(=O)c2cccc3ncsc23)CC1
3.93

If you can, please state the reported log10(IC50) value of CC1CN(c2ccc(C#N)cn2)CCN1C(=O)CCS(=O)(=O)c1cccc2ncsc12 (racemic) .
1.34

Query: log10(IC50); subject: N#Cc1ccc(C2CCN(C(=O)CCS(=O)(=O)c3cccc4ncsc34)CC2)nc1
1.28

Would you mind telling me what log10(IC50) value was observed for Cc1cc(F)cnc1N1CCN(C(=O)CCCS(=O)(=O)c2cccc3ncsc23)[C@@H](C)C1 ?
3.28
